Tested on: α-glucosidase
PROTOCOL NOTES: α-glucosidase inhibition with p-nitrophenyl-α-D-glucopyranoside
Format: biochemical, S. cerevisiae
CONDITION DETAILS: 1000 μM
Below, each entry is listed alongside its reported Activity of inhibiting α-glucosidase (% remaining activity).
Please respond with the number in % and leave the unit unwritten.

[[record]]
molecule = "OCC1OC(OC2C3COC2C(O)C(OC2C(O)C(CO)OC(OC4C5COC4C(O)C(O)O5)C2O)O3)C(O)C(O)C1O (centres unmarked) [Agarotetraose, agarotetraose]"
target_desc = "α-glucosidase"
observed_value = 32

[[record]]
molecule = "OC[C@H]1O[C@@H](O)[C@H](O)[C@@H](O[C@@H]2O[C@H]3CO[C@@H]([C@@H]2O)[C@@H]3O[C@@H]2O[C@H](CO)[C@H](O)[C@H](O[C@@H]3O[C@H]4CO[C@@H]([C@@H]3O)[C@@H]4O[C@@H]3O[C@H](CO)[C@H](O)[C@H](O[C@@H]4O[C@H]5CO[C@@H]([C@@H]4O)[C@@H]5O)[C@H]3O)[C@H]2O)[C@H]1O [Neoagarohexaose, neoagarohexaose, reference compound]"
target_desc = "α-glucosidase"
observed_value = 71

[[record]]
molecule = "OC[C@H]1O[C@@H](O[C@H]2[C@H]3OC[C@@H]2OC(O)[C@H]3O)[C@H](O)[C@@H](O)[C@H]1O (mixture of isomers) [Agarobiose, agarobiose]"
target_desc = "α-glucosidase"
observed_value = 100

[[record]]
molecule = "OC[C@H]1OC(O)[C@H](O)[C@@H](O[C@@H]2O[C@H]3CO[C@@H]([C@@H]2O)[C@@H]3O)[C@H]1O (some centres unmarked) [Neoagarobiose, neoagarobiose, reference compound]"
target_desc = "α-glucosidase"
observed_value = 100


// next item, Activity of inhibiting α-glucosidase (% remaining activity) requested
Kindly note the recorded Activity of inhibiting α-glucosidase (% remaining activity) for OC1O[C@@H]2CO[C@@H]([C@H]2O)[C@H]1O (some centres unmarked) [Anhydrogalactose, 3,6-anhydrogalactopyranose] , which is 100

====

System: α-glucosidase
PROTOCOL NOTES: α-glucosidase inhibition with p-nitrophenyl-α-D-glucopyranoside
Assay type: biochemical, S. cerevisiae
CONDITION DETAILS: 50 μM
Below, each entry is listed alongside its reported Activity of inhibiting α-glucosidase (% remaining activity).
Remember to quote the unit after the number.

Example results:
[[record]]
molecule = "OCC1OC(OC2C3COC2C(O)C(OC2C(O)C(CO)OC(OC4C5COC4C(O)C(OC4C(O)C(CO)OC(OC6C7COC6C(O)C(O)O7)C4O)O5)C2O)O3)C(O)C(O)C1O (stereo not drawn)"
observed_value = "91%"

[[record]]
molecule = "OCC1OC(OC2C3COC2C(O)C(OC2C(O)C(CO)OC(OC4C5COC4C(O)C(O)O5)C2O)O3)C(O)C(O)C1O (stereo not drawn)"
observed_value = "97%"


Kindly note the recorded Activity of inhibiting α-glucosidase (% remaining activity) for OC[C@H]1O[C@@H](O)[C@H](O)[C@@H](O[C@@H]2O[C@H]3CO[C@@H]([C@@H]2O)[C@@H]3O[C@@H]2O[C@H](CO)[C@H](O)[C@H](O[C@@H]3O[C@H]4CO[C@@H]([C@@H]3O)[C@@H]4O)[C@H]2O)[C@H]1O [Neoagarotetraose, neoagarotetraose, reference compound] , which is 93%

====

System: α-glucosidase
PROTOCOL NOTES: α-glucosidase inhibition with p-nitrophenyl-α-D-glucopyranoside
Assay type: biochemical, S. cerevisiae
CONDITION DETAILS: 5000 μM
Below, each entry is listed alongside its reported Activity of inhibiting α-glucosidase (% remaining activity).
Please respond with the number in % and leave the unit unwritten.

Response field Activity of inhibiting α-glucosidase (% remaining activity) (α-glucosidase) for item OC[C@H]1O[C@@H](O[C@H]2[C@H]3OC[C@@H]2OC(O)[C@H]3O)[C@H](O)[C@@H](O)[C@H]1O (mixture of isomers) : 100

====

Tested on: HL-60 cells
PROTOCOL NOTES: Proliferation of HL-60 cells with or without hydroxyurea G1 arrest, WST-1
Format: cell-based
CONDITION DETAILS: Homo sapiens, HL-60, 48 h, Cells without treatment with hydroxyurea, read-out: IC50 (concentration at which 50% of the proliferation is inhibited)
MEASUREMENT TYPE: pIC50
Just so you know, pIC50 here is -log10 of the concentration in molar units; reply with that number alone.

Response field pIC50 (HL-60 cells) for item OCC1OC(OC2C3COC2C(O)C(OC2C(O)C(CO)OC(OC4C5COC4C(O)C(OC4C(O)C(CO)OC(OC6C7COC6C(O)C(O)O7)C4O)O5)C2O)O3)C(O)C(O)C1O (stereo not shown) : 3.69

====

System: α-glucosidase
PROTOCOL NOTES: α-glucosidase inhibition with p-nitrophenyl-α-D-glucopyranoside
Assay type: biochemical, S. cerevisiae
CONDITION DETAILS: 1000 μM
Below, each entry is listed alongside its reported Activity of inhibiting α-glucosidase (% remaining activity).
Please respond with the number in % and leave the unit unwritten.

[[record]]
compound = "OC[C@H]1O[C@@H](O)[C@H](O)[C@@H](O[C@@H]2O[C@H]3CO[C@@H]([C@@H]2O)[C@@H]3O[C@@H]2O[C@H](CO)[C@H](O)[C@H](O[C@@H]3O[C@H]4CO[C@@H]([C@@H]3O)[C@@H]4O)[C@H]2O)[C@H]1O [Neoagarotetraose, neoagarotetraose, reference compound]"
target_desc = "α-glucosidase"
observed_value = 76


Kindly note the recorded Activity of inhibiting α-glucosidase (% remaining activity) for OCC1OC(OC2C3COC2C(O)C(OC2C(O)C(CO)OC(OC4C5COC4C(O)C(OC4C(O)C(CO)OC(OC6C7COC6C(O)C(O)O7)C4O)O5)C2O)O3)C(O)C(O)C1O (centres unmarked) , which is 35

====

System: α-glucosidase
PROTOCOL NOTES: α-glucosidase inhibition with p-nitrophenyl-α-D-glucopyranoside
Assay type: biochemical, S. cerevisiae
CONDITION DETAILS: 500 μM
MEASUREMENT TYPE: Activity of inhibiting α-glucosidase (% remaining activity) (%)
Please respond with the number in % and leave the unit unwritten.

Example results:
[[record]]
molecule = "OC[C@H]1O[C@@H](O)[C@H](O)[C@@H](O[C@@H]2O[C@H]3CO[C@@H]([C@@H]2O)[C@@H]3O[C@@H]2O[C@H](CO)[C@H](O)[C@H](O[C@@H]3O[C@H]4CO[C@@H]([C@@H]3O)[C@@H]4O)[C@H]2O)[C@H]1O [Neoagarotetraose, neoagarotetraose, reference compound]"
observed_value = 89

[[record]]
molecule = "OCC1OC(OC2C3COC2C(O)C(OC2C(O)C(CO)OC(OC4C5COC4C(O)C(O)O5)C2O)O3)C(O)C(O)C1O (stereo not shown)"
observed_value = 75

[[record]]
molecule = "OC[C@H]1O[C@@H](O[C@H]2[C@H]3OC[C@@H]2OC(O)[C@H]3O)[C@H](O)[C@@H](O)[C@H]1O (mixture of isomers)"
observed_value = 100


Kindly note the recorded Activity of inhibiting α-glucosidase (% remaining activity) for OCC1OC(OC2C3COC2C(O)C(OC2C(O)C(CO)OC(OC4C5COC4C(O)C(OC4C(O)C(CO)OC(OC6C7COC6C(O)C(O)O7)C4O)O5)C2O)O3)C(O)C(O)C1O (stereo not shown) , which is 47

Kindly note the recorded Activity of inhibiting α-glucosidase (% remaining activity) for OC1O[C@@H]2CO[C@@H]([C@H]2O)[C@H]1O (stereo partly shown) [Anhydrogalactose, 3,6-anhydrogalactopyranose] , which is 100

Kindly note the recorded Activity of inhibiting α-glucosidase (% remaining activity) for OC[C@H]1OC(O)[C@H](O)[C@@H](O[C@@H]2O[C@H]3CO[C@@H]([C@@H]2O)[C@@H]3O)[C@H]1O (stereo partly shown) [Neoagarobiose, neoagarobiose, reference compound] , which is 100

Kindly note the recorded Activity of inhibiting α-glucosidase (% remaining activity) for OC[C@H]1O[C@@H](O)[C@H](O)[C@@H](O[C@@H]2O[C@H]3CO[C@@H]([C@@H]2O)[C@@H]3O[C@@H]2O[C@H](CO)[C@H](O)[C@H](O[C@@H]3O[C@H]4CO[C@@H]([C@@H]3O)[C@@H]4O[C@@H]3O[C@H](CO)[C@H](O)[C@H](O[C@@H]4O[C@H]5CO[C@@H]([C@@H]4O)[C@@H]5O)[C@H]3O)[C@H]2O)[C@H]1O [Neoagarohexaose, neoagarohexaose, reference compound] , which is 93

====

System: α-glucosidase
PROTOCOL NOTES: α-glucosidase inhibition with p-nitrophenyl-α-D-glucopyranoside
Format: biochemical, S. cerevisiae
CONDITION DETAILS: 5000 μM
Method: (1) An α-glucosidase activity was measured by allowing α-glucosidase to act on p-nitrophenyl-α-D-glucopyranoside (a chromogenic substrate) and calorimetrically quantifying 4-nitrophenol released by hydrolysis. 10 μl of α-glucosidase solution [40 mU/ml, derived from S. cerevisiae, Sigma, dissolved in 10 mM phosphate buffer (pH 7.2 at 37° C.)] and 10 μl of a solution containing a test sample dissolved in 10 mM phosphate buffer (pH 7.2 at 37° C.) were mixed. […]
MEASUREMENT TYPE: Activity of inhibiting α-glucosidase (% remaining activity) (%)
Please respond with the number in % and leave the unit unwritten.

Example results:
[[record]]
compound = "OCC1OC(OC2C3COC2C(O)C(OC2C(O)C(CO)OC(OC4C5COC4C(O)C(OC4C(O)C(CO)OC(OC6C7COC6C(O)C(O)O7)C4O)O5)C2O)O3)C(O)C(O)C1O (stereo not drawn)"
unit_of_measurement = "%"
observed_value = 7

[[record]]
compound = "OC[C@H]1OC(O)[C@H](O)[C@@H](O[C@@H]2O[C@H]3CO[C@@H]([C@@H]2O)[C@@H]3O)[C@H]1O (stereo partly drawn) [Neoagarobiose, neoagarobiose, reference compound]"
unit_of_measurement = "%"
observed_value = 100


// next item, Activity of inhibiting α-glucosidase (% remaining activity) requested
Kindly note the recorded Activity of inhibiting α-glucosidase (% remaining activity) for OCC1OC(OC2C3COC2C(O)C(OC2C(O)C(CO)OC(OC4C5COC4C(O)C(O)O5)C2O)O3)C(O)C(O)C1O (stereo not drawn) , which is 20
